Tested on: THP-1
Assay: Cytotoxicity against human THP1 cells after 48 hrs by MTT assay
Assay type: cell-based
Details: THP-1, 48 h
pEC50: −log10 of the molar value.
Think of 4 as a floor: if pEC50 stands on it or above, it is 1.0; beneath it, 0.0.

Completed entries (count: 3):
[[record]]
smiles_representation = "C[C@@H]1[C@H](O)[C@@H](C)/C=C/C=C/C=C/C=C/C=C/C=C/C=C/[C@H](O[C@@H]2O[C@H](C)[C@@H](O)[C@H](N)[C@@H]2O)C[C@@H]2O[C@](O)(C[C@@H](O)C[C@@H](O)[C@H](O)CC[C@@H](O)C[C@@H](O)CC(=O)O[C@H]1C)C[C@H](O)[C@H]2C(=O)O"
classification = 1.0

[[record]]
smiles_representation = "c1c[n+]2ccc1NCCCCCNc1cc[n+](cc1)CCOCC2"
classification = 0.0

[[record]]
smiles_representation = "c1cc2ccc1CNc1cc[n+](cc1)CCOCC[n+]1ccc(cc1)NC2"
classification = 0.0


Prompt: Tell me whether pEC50 is at least 4 here: "CCCCCCCCCCCCCCCCOP(=O)([O-])OCC[N+](C)(C)C"
Response: 1.0

Prompt: Tell me whether pEC50 is at least 4 here: "c1c[n+]2ccc1NCCOCCNc1cc[n+](cc1)CCCCC2"
Response: 0.0

Prompt: Tell me whether pEC50 is at least 4 here: "c1cc2ccc1CNc1cc[n+](cc1)CCCCC[n+]1ccc(cc1)NC2"
Response: 0.0

Prompt: Tell me whether pEC50 is at least 4 here: "c1cc2cc(c1)CNc1cc[n+](cc1)CCOCC[n+]1ccc(cc1)NC2"
Response: 0.0

----------
Assay: Selectivity index, ratio of EC50 for human THP1 cells to EC50 for Leishmania major MHOM/JL/80/ Friedlin amastigotes infected in human THP1 cells
Format: toxicity, cell-based, THP-1
Details: read-out: Ratio EC50
Mark TRUE only for selectivity ratio values smaller than 60; exact matches and larger values are FALSE.

Completed entries (count: 5):
[[record]]
smiles_representation = "c1cc2cc(c1)CNc1cc[n+](cc1)CCOCC[n+]1ccc(cc1)NC2"
classification = "TRUE"

[[record]]
smiles_representation = "c1cc2ccc1CNc1cc[n+](cc1)CCCCC[n+]1ccc(cc1)NC2"
classification = "FALSE"

[[record]]
smiles_representation = "c1c[n+]2ccc1NCCCCCNc1cc[n+](cc1)CCCCC2"
classification = "FALSE"

[[record]]
smiles_representation = "c1cc2cc(c1)C[n+]1ccc(cc1)NCCOCCNc1cc[n+](cc1)C2"
classification = "FALSE"

[[record]]
smiles_representation = "c1cc2cc(c1)CNc1cc[n+](cc1)CCCCC[n+]1ccc(cc1)NC2"
classification = "TRUE"


Prompt: I'd appreciate it if you could check whether "CCCCCCCCCCCCCCCCOP(=O)([O-])OCC[N+](C)(C)C" has selectivity ratio smaller than 60.
Response: TRUE

Prompt: I'd appreciate it if you could check whether "c1c[n+]2ccc1NCCOCCNc1cc[n+](cc1)CCCCC2" has selectivity ratio smaller than 60.
Response: FALSE

Prompt: I'd appreciate it if you could check whether "c1c[n+]2ccc1NCCOCCNc1cc[n+](cc1)CCOCC2" has selectivity ratio smaller than 60.
Response: TRUE

Prompt: I'd appreciate it if you could check whether "c1c[n+]2ccc1NCCCCCNc1cc[n+](cc1)CCOCC2" has selectivity ratio smaller than 60.
Response: FALSE

Prompt: I'd appreciate it if you could check whether "c1cc2ccc1CNc1cc[n+](cc1)CCOCC[n+]1ccc(cc1)NC2" has selectivity ratio smaller than 60.
Response: TRUE

----------
Experiment: Selectivity index, ratio of EC50 for human THP1 cells to EC50 for Leishmania donovani MHOM/IND/80/Dd8 amastigotes infected in human THP1 cells
Type: toxicity, cell-based, THP-1
Conditions: read-out: Ratio EC50
measure.name: selectivity ratio
Give the value as a plain number.

Some molecules with recorded selectivity ratio:
[[record]]
smiles_representation = "c1cc2ccc1CNc1cc[n+](cc1)CCCCC[n+]1ccc(cc1)NC2"
endpoint_result = 4.3

[[record]]
smiles_representation = "c1cc2cc(c1)C[n+]1ccc(cc1)NCCOCCNc1cc[n+](cc1)C2"
endpoint_result = 9.2

[[record]]
smiles_representation = "c1c[n+]2ccc1NCCCCCNc1cc[n+](cc1)CCCCC2"
endpoint_result = 20.2

[[record]]
smiles_representation = "c1cc2cc(c1)CNc1cc[n+](cc1)CCCCC[n+]1ccc(cc1)NC2"
endpoint_result = 14.2

[[record]]
smiles_representation = "CCCCCCCCCCCCCCCCOP(=O)([O-])OCC[N+](C)(C)C"
endpoint_result = 30.5


Then there is this molecule:
Prompt: Would you mind telling me what selectivity ratio value was observed for "C[C@@H]1[C@H](O)[C@@H](C)/C=C/C=C/C=C/C=C/C=C/C=C/C=C/[C@H](O[C@@H]2O[C@H](C)[C@@H](O)[C@H](N)[C@@H]2O)C[C@@H]2O[C@](O)(C[C@@H](O)C[C@@H](O)[C@H](O)CC[C@@H](O)C[C@@H](O)CC(=O)O[C@H]1C)C[C@H](O)[C@H]2C(=O)O" ?
Response: 51.1

----------
Tested on: Leishmania donovani
Experiment: Anti-leishmanial activity against Leishmania donovani MHOM/IND/80/Dd8 promastigotes incubated for 72 hrs at 28 degC in presence of 10 mM ethanolamine
Format: functional, organism-based
Settings: MHOM/IND/80/Dd8, 72 h
measure.name: EC50 (µM)
Number only, in µM; omit the unit.

Prompt: Would you mind telling me what EC50 value was observed for "c1c[n+]2ccc1NCCCCCNc1cc[n+](cc1)CCCCC2" ?
Response: 12

----------
Test system: Leishmania donovani
Assay: Anti-leishmanial activity against Leishmania donovani MHOM/IND/80/Dd8 amastigotes expressing pXG-CEK infected in human THP1 cells incubated for 72 hrs at 37 degC
Type: functional, organism-based
Conditions: MHOM/IND/80/Dd8, THP-1, 72 h
measure.name: pEC50
Reminder that pEC50 means the negative base-10 logarithm of the concentration expressed in mol/L.

Prompt: Would you mind telling me what pEC50 value was observed for "c1c[n+]2ccc1NCCCCCNc1cc[n+](cc1)CCCCC2" ?
Response: 4.90

----------
Tested on: Leishmania major
Experiment: Anti-leishmanial activity against Leishmania major MHOM/JL/80/ Friedlin promastigotes incubated for 72 hrs at 28 degC
Assay type: functional, organism-based
# Lookup of reported EC50 keyed by entry
Number only, in µM; omit the unit.

Some compounds with recorded EC50:
[[record]]
smiles_representation = "c1cc2ccc1CNc1cc[n+](cc1)CCOCC[n+]1ccc(cc1)NC2"
study_system = "Leishmania major"
endpoint_result = 26.5

[[record]]
smiles_representation = "c1cc2ccc1CNc1cc[n+](cc1)CCCCC[n+]1ccc(cc1)NC2"
study_system = "Leishmania major"
endpoint_result = 0.17


Then there is this compound:
Prompt: What is its EC50 for Leishmania major? Entry: "c1cc2cc(c1)CNc1cc[n+](cc1)CCOCC[n+]1ccc(cc1)NC2"
Response: 5.97

----------
# Lookup of reported log10 of EC50 keyed by entry
Test system: Leishmania donovani
Assay: Anti-leishmanial activity against Leishmania donovani MHOM/IND/80/Dd8 amastigotes infected in human THP1 cells incubated for 72 hrs at 37 degC by DAPI staining based assay
Type: functional, organism-based
Settings: MHOM/IND/80/Dd8, THP-1, 72 h
Reminder: these figures are log10 of reported EC50, in µM before transformation.

Some compounds with recorded log10 of EC50:
[[record]]
smiles_representation = "c1c[n+]2ccc1NCCCCCNc1cc[n+](cc1)CCCCC2"
measure_name = "log10 of EC50"
endpoint_result = 0.88

[[record]]
smiles_representation = "c1c[n+]2ccc1NCCOCCNc1cc[n+](cc1)CCOCC2"
measure_name = "log10 of EC50"
endpoint_result = 1.32

[[record]]
smiles_representation = "c1cc2cc(c1)CNc1cc[n+](cc1)CCCCC[n+]1ccc(cc1)NC2"
measure_name = "log10 of EC50"
endpoint_result = 1.13

[[record]]
smiles_representation = "c1c[n+]2ccc1NCCOCCNc1cc[n+](cc1)CCCCC2"
measure_name = "log10 of EC50"
endpoint_result = 1.52

[[record]]
smiles_representation = "c1cc2cc(c1)CNc1cc[n+](cc1)CCOCC[n+]1ccc(cc1)NC2"
measure_name = "log10 of EC50"
endpoint_result = 0.95

[[record]]
smiles_representation = "c1cc2ccc1CNc1cc[n+](cc1)CCOCC[n+]1ccc(cc1)NC2"
measure_name = "log10 of EC50"
endpoint_result = 1.80

[[record]]
smiles_representation = "CCCCCCCCCCCCCCCCOP(=O)([O-])OCC[N+](C)(C)C"
measure_name = "log10 of EC50"
endpoint_result = -0.06

[[record]]
smiles_representation = "c1cc2cc(c1)C[n+]1ccc(cc1)NCCOCCNc1cc[n+](cc1)C2"
measure_name = "log10 of EC50"
endpoint_result = 1.33

[[record]]
smiles_representation = "c1c[n+]2ccc1NCCCCCNc1cc[n+](cc1)CCOCC2"
measure_name = "log10 of EC50"
endpoint_result = 1.11

[[record]]
smiles_representation = "C[C@@H]1[C@H](O)[C@@H](C)/C=C/C=C/C=C/C=C/C=C/C=C/C=C/[C@H](O[C@@H]2O[C@H](C)[C@@H](O)[C@H](N)[C@@H]2O)C[C@@H]2O[C@](O)(C[C@@H](O)C[C@@H](O)[C@H](O)CC[C@@H](O)C[C@@H](O)CC(=O)O[C@H]1C)C[C@H](O)[C@H]2C(=O)O"
measure_name = "log10 of EC50"
endpoint_result = -0.55


Then there is this compound:
Prompt: What is its log10 of EC50 for Leishmania donovani? Entry: "c1cc2ccc1CNc1cc[n+](cc1)CCCCC[n+]1ccc(cc1)NC2"
Response: 1.58
